- system_tested: BRD4 (Homo sapiens)
- assay_procedure: BRD4 AlphaScreen
- Format: binding
- Design: […]; His tag (inferred from capture on Ni-coated acceptor beads)
- assay_conditions: read-out: BRD4 Alpha (IC50)
Please go through the items and note down their IC50.
Field format: number, assumed nM, no unit text.

Exercise: For COc1cc(C(=O)NCCCCNC(=O)COc2cccc3c2C(=O)N(C2CCC(=O)NC2=O)C3=O)ccc1Nc1ncc2c(n1)N(C)c1ccccc1C(=O)N2C (stereo not shown) [dBET11] , what is its reported IC50?
Key: 958

Exercise: For Cc1sc2c(c1C)C(c1ccc(Cl)cc1)=N[C@@H](CC(=O)NCCCN1CCN(C(=O)CCCCCNC(=O)COc3cccc4c3C(=O)N(C3CCC(=O)NC3=O)C4=O)CC1)c1nnc(C)n1-2 (stereo partly shown) [dBET18] , what is its reported IC50?
Key: 11

Exercise: For Cc1c(CC#N)sc2c1C(c1ccc(Cl)cc1)=N[C@@H](CC(=O)NCCCCNC(=O)COc1cccc3c1C(=O)N(C1CCC(=O)NC1=O)C3=O)c1nnc(C)n1-2 (stereo partly shown) [dBET19] , what is its reported IC50?
Key: 212

Exercise: For Cc1cnc(Nc2ccc(N3CCN(C(=O)CCC(=O)NCCCCCCCCNC(=O)COc4cccc5c4C(=O)N(C4CCC(=O)NC4=O)C5=O)CC3)cc2)nc1Nc1cccc(S(=O)(=O)NC(C)(C)C)c1 (stereo not shown) [dBET33] , what is its reported IC50?
Key: 4990

====

- system_tested: BRDT (Homo sapiens)
- assay_procedure: BRDT IC50 (Table 4)
- Type: binding
measurement_kind: pIC50
In textbook form, pIC50 equals minus log to base ten of the concentration in mol/L.

Exercise: For Cc1sc2c(c1C)C(c1ccc(Cl)cc1)=N[C@@H](CC(=O)NCCCCCCNC(=O)c1ccc3c(c1)C(=O)N(C1CCC(=O)NC1=O)C3=O)c1nnc(C)n1-2 (stereo partly shown) , what is its reported pIC50?
Key: 7.03

====

- system_tested: BRD4 (Homo sapiens)
- assay_procedure: BRD4 AlphaScreen
- Format: binding
- Set-up: […]; His tag (inferred from capture on Ni-coated acceptor beads)
- assay_conditions: read-out: BRD4 Alpha (IC50)
measurement_kind: IC50 (µM)
Field format: number, assumed µM, no unit text.

Exercise: For Cc1noc(C)c1-c1ccc(-c2nc3cnccn3c2NCC(=O)NCCCOCCOCCOCCCNC(=O)COc2cccc3c2C(=O)N(C2CCC(=O)NC2=O)C3=O)cc1 (centres unmarked) , what is its reported IC50?
Key: 8.83

Exercise: For CC[C@@H]1C(=O)N(C)c2cnc(Nc3ccc(C(=O)NCCCOCCOCCOCCCNC(=O)COc4cccc5c4C(=O)N(C4CCC(=O)NC4=O)C5=O)cc3OC)nc2N1C1CCCC1 (some centres unmarked) , what is its reported IC50?
Key: 0.083

Exercise: For Cc1noc(C)c1-c1ccc(-c2nc3cnccn3c2NCC(=O)NCCCCNC(=O)COc2cccc3c2C(=O)N(C2CCC(=O)NC2=O)C3=O)cc1 (centres unmarked) , what is its reported IC50?
Key: 6.93

Exercise: For Cc1cnc(Nc2ccc(N3CCN(C(=O)CCC(=O)NCCCOCCOCCOCCCNC(=O)COc4cccc5c4C(=O)N(C4CCC(=O)NC4=O)C5=O)CC3)cc2)nc1Nc1cccc(S(=O)(=O)NC(C)(C)C)c1 (centres unmarked) , what is its reported IC50?
Key: 1.54

Exercise: For Cc1cnc(Nc2ccc(N3CCN(C(=O)CCC(=O)NCCCCNC(=O)COc4cccc5c4C(=O)N(C4CCC(=O)NC4=O)C5=O)CC3)cc2)nc1Nc1cccc(S(=O)(=O)NC(C)(C)C)c1 (centres unmarked) , what is its reported IC50?
Key: 3.3

====

Please go through the items and note down their IC50.
- system_tested: CRBN-DDB1 (Homo sapiens, UniProt Q96SW2)
- Construct: 6xHis (given for the complex); made in house; host or cells: Sf9 cells (Invitrogen), pFastBac
- assay_procedure: CRBN-DDB1 Ligand-Displacement AlphaScreen Assay (thalidomide competition);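 also: streptavidin donor and nickel chelate acceptor bead proximity signal after 30 min incubation, normalized with no-protein background as 0% and DMSO wells as 100% activity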
- Assay type: binding
- assay_conditions: biotin-thalidomide competition; read-out: THAL ALPHA (IC50)
Field format: number, assumed nM, no unit text.

Exercise: For COc1cc(C(=O)NCCCOCCOCCOCCCNC(=O)COc2cccc3c2C(=O)N(C2CCC(=O)NC2=O)C3=O)ccc1Nc1ncc2c(n1)N(C)c1ccccc1C(=O)N2C (stereo not drawn) , what is its reported IC50?
Key: 23.8

Exercise: For Cc1c(C(=O)NCCCCNC(=O)COc2cccc3c2C(=O)N(C2CCC(=O)NC2=O)C3=O)sc2c1C(c1ccc(Cl)cc1)=N[C@@H](CC(=O)NCCCN1CCN(C)CC1)c1nnc(C)n1-2 (stereo partly drawn) , what is its reported IC50?
Key: 26.5

Exercise: For Cc1c(CC#N)sc2c1C(c1ccc(Cl)cc1)=N[C@@H](CC(=O)NCCCCNC(=O)COc1cccc3c1C(=O)N(C1CCC(=O)NC1=O)C3=O)c1nnc(C)n1-2 (stereo partly drawn) , what is its reported IC50?
Key: 3.62

Exercise: For Cc1sc2c(c1C)C(c1ccc(Cl)cc1)=N[C@@H](CC(=O)NCCCCOc1cccc3c1C(=O)N(C1CCC(=O)NC1=O)C3=O)c1nnc(C)n1-2 (stereo partly drawn) , what is its reported IC50?
Key: 17.1

Exercise: For Cc1noc(C)c1-c1ccc(-c2nc3cnccn3c2NCC(=O)NCCCOCCOCCOCCCNC(=O)COc2cccc3c2C(=O)N(C2CCC(=O)NC2=O)C3=O)cc1 (stereo not drawn) , what is its reported IC50?
Key: 12.4

Exercise: For CC[C@@H]1C(=O)N(C)c2cnc(Nc3ccc(C(=O)NCCCOCCOCCOCCCNC(=O)COc4cccc5c4C(=O)N(C4CCC(=O)NC4=O)C5=O)cc3OC)nc2N1C1CCCC1 (stereo partly drawn) , what is its reported IC50?
Key: 12.7

Exercise: For Cc1noc(C)c1-c1ccc(-c2nc3cnccn3c2NCC(=O)NCCCCNC(=O)COc2cccc3c2C(=O)N(C2CCC(=O)NC2=O)C3=O)cc1 (stereo not drawn) , what is its reported IC50?
Key: 10.7

Exercise: For Cc1sc2c(c1C)C(c1ccc(Cl)cc1)=N[C@@H](CC(=O)NCCCN1CCN(C(=O)CCCCCNC(=O)COc3cccc4c3C(=O)N(C3CCC(=O)NC3=O)C4=O)CC1)c1nnc(C)n1-2 (stereo partly drawn) , what is its reported IC50?
Key: 1.57

Exercise: For COc1cc(C(=O)NCCCCNC(=O)COc2cccc3c2C(=O)N(C2CCC(=O)NC2=O)C3=O)ccc1Nc1ncc2c(n1)N(C)c1ccccc1C(=O)N2C (stereo not drawn) , what is its reported IC50?
Key: 25.1

====

- system_tested: BRD4 adjoined to nanoluciferase (Nluc) (Homo sapiens, UniProt O60885+Q96SW2)
- Construct: expressed in transfected cells
- assay_procedure: BRD4 Dual Luciferase Assay;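 also: transduced reporter cells exposed to compound for 4 h, then Nluc and Fluc luminescence read, each normalized to DMSO controls and expressed as Nluc/Fluc ratio per well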
- Format: cell-based
- assay_conditions: read-out: BRD4 max degradation(%) Dual Luciferase
measurement_kind: Dmax (%)
Field format: number, assumed %, no unit text.

Exercise: For Cc1sc2c(c1C)C(c1ccc(Cl)cc1)=N[C@@H](CC(=O)NCCCCCC(=O)NCc1cccc3c1C(=O)N(C1CCC(=O)NC1=O)C3=O)c1nnc(C)n1-2 (stereo partly drawn) , what is its reported Dmax?
Key: 46

Exercise: For COC(=O)C[C@@H]1N=C(c2ccc(Cl)cc2)c2c(sc(C)c2C(=O)NCCCCCCCCNC(=O)COc2cccc3c2C(=O)N(C2CCC(=O)NC2=O)C3=O)-n2c(C)nnc21 (stereo partly drawn) , what is its reported Dmax?
Key: 40

Exercise: For Cc1sc2c(c1C)C(c1ccc(Cl)cc1)=N[C@@H](CC(=O)NCCCCCCCCOc1cccc3c1C(=O)N(C1CCC(=O)NC1=O)C3=O)c1nnc(C)n1-2 (stereo partly drawn) , what is its reported Dmax?
Key: 21

Exercise: For Cc1sc2c(c1C)C(c1ccc(Cl)cc1)=N[C@@H](CC(=O)NCCCCC(=O)Nc1cccc3c1CN(C1CCC(=O)NC1=O)C3=O)c1nnc(C)n1-2 (stereo partly drawn) , what is its reported Dmax?
Key: 10

Exercise: For Cc1sc2c(c1C)C(c1ccc(Cl)cc1)=N[C@@H](CC(=O)NCCNC(=O)COc1cccc3c1C(=O)N(C1CCC(=O)NC1=O)C3=O)c1nnc(C)n1-2 (stereo partly drawn) , what is its reported Dmax?
Key: 13

Exercise: For Cc1sc2c(c1C)C(c1ccc(Cl)cc1)=N[C@@H](CC(=O)NCCOCCOCCNC(=O)COc1cccc3c1C(=O)N(C1CCC(=O)NC1=O)C3=O)c1nnc(C)n1-2 (stereo partly drawn) , what is its reported Dmax?
Key: 50

====

- system_tested: BRDT (Homo sapiens, UniProt Q58F21)
- assay_procedure: BRDT IC50 (Table 4)
- Assay type: binding
- assay_conditions: read-out: IC50 (nM) BRDT
Please use rule met for IC50 under 300 nM and rule not met for everything else, ties included.

Exercise: is_below(IC50, 300 nM) for Cc1sc2c(c1C)C(c1ccc(C#N)cc1)=N[C@@H](CC(=O)NCCCCNC(=O)COc1cccc3c1C(=O)N(C1CCC(=O)NC1=O)C3=O)c1nnc(C)n1-2 (stereo partly drawn) [dBET17] ?
Key: rule met

Exercise: is_below(IC50, 300 nM) for Cc1sc2c(c1C)C(c1ccc(Cl)cc1)=N[C@@H](CC(=O)NCCCOCCOCCOCCCNC(=O)COc1cccc3c1C(=O)N(C1CCC(=O)NC1=O)C3=O)c1nnc(C)n1-2 (stereo partly drawn) [dBET9] ?
Key: rule met

Exercise: is_below(IC50, 300 nM) for Cc1sc2c(c1C)C(c1ccc(Cl)cc1)=N[C@@H](CC(=O)NCCNC(=O)COc1cccc3c1C(=O)N(C1CCC(=O)NC1=O)C3=O)c1nnc(C)n1-2 (stereo partly drawn) [dBET3] ?
Key: rule met

Exercise: is_below(IC50, 300 nM) for CC[C@@H]1C(=O)N(C)c2cnc(Nc3ccc(C(=O)NCCCCCCNC(=O)COc4cccc5c4C(=O)N(C4CCC(=O)NC4=O)C5=O)cc3OC)nc2N1C1CCCC1 (stereo partly drawn) [dBET7] ?
Key: rule not met

Exercise: is_below(IC50, 300 nM) for CC[C@@H]1C(=O)N(C)c2cnc(Nc3ccc(C(=O)NCCCCNC(=O)COc4cccc5c4C(=O)N(C4CCC(=O)NC4=O)C5=O)cc3OC)nc2N1C1CCCC1 (stereo partly drawn) [dBET2] ?
Key: rule not met
